In this section, each of the molecules is paired with its reported inhibition at 50 µM.
- Test system: MCF7
- assay explanation: Cytotoxicity against human MCF7 cells assessed as reduction in cell viability at 50 uM after 48 hrs by MTT assay relative to control
- Format: functional
- condition: MCF7, 48 h
reported property: inhibition at 50 µM (%)

1) Brc1ccc2nc(-c3cccc(-c4nc5ccc(Br)cc5[nH]4)c3)[nH]c2c1 ... 93.5
2) Cn1c(-c2cccc(-c3nc4ccccc4n3C)c2)nc2ccccc21 ... 23.3
3) O=[N+]([O-])c1ccc2nc(-c3cccc(-c4nc5ccc([N+](=O)[O-])cc5[nH]4)c3)[nH]c2c1 ... 47.4
4) O=[N+]([O-])c1cc(-c2nc3ccc(C(F)(F)F)cc3[nH]2)cc(-c2nc3ccc(C(F)(F)F)cc3[nH]2)c1 ... 99.2
5) COc1cc(-c2nc3ccc([N+](=O)[O-])cc3[nH]2)cc(-c2nc3ccc([N+](=O)[O-])cc3[nH]2)c1 ... 96.3
6) O=[N+]([O-])c1cc(-c2nc3ccc([N+](=O)[O-])cc3[nH]2)cc(-c2nc3ccc([N+](=O)[O-])cc3[nH]2)c1 ... 94.7
7) FC(F)(F)c1ccc2nc(-c3cccc(-c4nc5ccc(C(F)(F)F)cc5[nH]4)c3)[nH]c2c1 ... 98.8
8) Clc1ccc2nc(-c3cccc(-c4nc5ccc(Cl)cc5[nH]4)c3)[nH]c2c1 ... 90.5
9) c1ccc2[nH]c(-c3ccc(-c4nc5ccccc5[nH]4)cc3)nc2c1 ... 63.3
10) COc1cc(-c2nc3ccc(C(F)(F)F)cc3[nH]2)cc(-c2nc3ccc(C(F)(F)F)cc3[nH]2)c1 ... 98.9
11) c1ccc(-c2nc3ccccc3[nH]2)cc1 ... 25.5
12) c1ccc(-c2nc3ccccc3[nH]2)c(-c2nc3ccccc3[nH]2)c1 ... 11.6
13) Fc1ccc2nc(-c3cccc(-c4nc5ccc(F)cc5[nH]4)c3)[nH]c2c1 ... 26.4
14) O=[N+]([O-])c1cc(-c2nc3ccccc3[nH]2)cc(-c2nc3ccccc3[nH]2)c1 ... 48.2
15) c1cc(-c2nc3ccccc3[nH]2)cc(-c2nc3ccccc3[nH]2)c1 ... 31.9

###

In this section, each of the compounds is paired with its reported inhibition at 50 µM.
- Tested on: HepG2
- assay explanation: Cytotoxicity against human HepG2 cells assessed as reduction in cell viability at 50 uM after 48 hrs by MTT assay relative to control
- Format: functional
- condition: HepG2, 48 h
reported property: inhibition at 50 µM

1. O=[N+]([O-])c1cc(-c2nc3ccccc3[nH]2)cc(-c2nc3ccccc3[nH]2)c1 ... -2.6%
2. Brc1ccc2nc(-c3cccc(-c4nc5ccc(Br)cc5[nH]4)c3)[nH]c2c1 ... 93.1%
3. FC(F)(F)c1ccc2nc(-c3cccc(-c4nc5ccc(C(F)(F)F)cc5[nH]4)c3)[nH]c2c1 ... 100%
4. c1ccc2[nH]c(-c3ccc(-c4nc5ccccc5[nH]4)cc3)nc2c1 ... 17.4%
5. O=[N+]([O-])c1cc(-c2nc3ccc(C(F)(F)F)cc3[nH]2)cc(-c2nc3ccc(C(F)(F)F)cc3[nH]2)c1 ... 101%
6. c1cc(-c2nc3ccccc3[nH]2)cc(-c2nc3ccccc3[nH]2)c1 ... 69.5%
7. COc1cc(-c2nc3ccc(C(F)(F)F)cc3[nH]2)cc(-c2nc3ccc(C(F)(F)F)cc3[nH]2)c1 ... 101%
8. c1ccc(-c2nc3ccccc3[nH]2)cc1 ... 11.6%
9. O=[N+]([O-])c1ccc2nc(-c3cccc(-c4nc5ccc([N+](=O)[O-])cc5[nH]4)c3)[nH]c2c1 ... 15.4%
10. Cn1c(-c2cccc(-c3nc4ccccc4n3C)c2)nc2ccccc21 ... 49.1%
11. Fc1ccc2nc(-c3cccc(-c4nc5ccc(F)cc5[nH]4)c3)[nH]c2c1 ... 78.9%
12. COc1cc(-c2nc3ccc([N+](=O)[O-])cc3[nH]2)cc(-c2nc3ccc([N+](=O)[O-])cc3[nH]2)c1 ... 96.7%
13. c1ccc(-c2nc3ccccc3[nH]2)c(-c2nc3ccccc3[nH]2)c1 ... 3.6%
14. O=[N+]([O-])c1cc(-c2nc3ccc([N+](=O)[O-])cc3[nH]2)cc(-c2nc3ccc([N+](=O)[O-])cc3[nH]2)c1 ... 81.3%
15. Clc1ccc2nc(-c3cccc(-c4nc5ccc(Cl)cc5[nH]4)c3)[nH]c2c1 ... 98.4%

###

- System: HeLa
- assay explanation: Cytotoxicity against human HeLa cells assessed as reduction in cell viability after 48 hrs by MTT assay
- Type: functional, cell-based
pIC50: −log10 of the molar value.
reported property: pIC50

1) COc1cc(-c2nc3ccc(C(F)(F)F)cc3[nH]2)cc(-c2nc3ccc(C(F)(F)F)cc3[nH]2)c1 ... 5.08
2) Fc1ccc2nc(-c3cccc(-c4nc5ccc(F)cc5[nH]4)c3)[nH]c2c1 ... 4.94
3) O=[N+]([O-])c1cc(-c2nc3ccc(C(F)(F)F)cc3[nH]2)cc(-c2nc3ccc(C(F)(F)F)cc3[nH]2)c1 ... 5.72
4) FC(F)(F)c1ccc2nc(-c3cccc(-c4nc5ccc(C(F)(F)F)cc5[nH]4)c3)[nH]c2c1 ... 5.10
5) c1cc(-c2nc3ccccc3[nH]2)cc(-c2nc3ccccc3[nH]2)c1 ... 5.07
6) Clc1ccc2nc(-c3cccc(-c4nc5ccc(Cl)cc5[nH]4)c3)[nH]c2c1 ... 4.97
7) COc1cccc2c1C(=O)c1c(O)c3c(c(O)c1C2=O)C[C@@](O)(C(=O)CO)C[C@@H]3O[C@H]1C[C@H](N)[C@H](O)[C@H](C)O1 ... 6.30
8) Brc1ccc2nc(-c3cccc(-c4nc5ccc(Br)cc5[nH]4)c3)[nH]c2c1 ... 4.68
9) COc1cc(-c2nc3ccc([N+](=O)[O-])cc3[nH]2)cc(-c2nc3ccc([N+](=O)[O-])cc3[nH]2)c1 ... 6.00

###

In this section, each of the molecules is paired with its reported pIC50.
- System: MCF7
- assay explanation: Cytotoxicity against human MCF7 cells assessed as reduction in cell viability after 48 hrs by MTT assay
- Type: functional, cell-based
- condition: MCF7, 48 h
pIC50: −log10 of the molar value.
reported property: pIC50

1. FC(F)(F)c1ccc2nc(-c3cccc(-c4nc5ccc(C(F)(F)F)cc5[nH]4)c3)[nH]c2c1 ... 4.89
2. COc1cc(-c2nc3ccc(C(F)(F)F)cc3[nH]2)cc(-c2nc3ccc(C(F)(F)F)cc3[nH]2)c1 ... 4.92
3. COc1cc(-c2nc3ccc([N+](=O)[O-])cc3[nH]2)cc(-c2nc3ccc([N+](=O)[O-])cc3[nH]2)c1 ... 4.77
4. COc1cccc2c1C(=O)c1c(O)c3c(c(O)c1C2=O)C[C@@](O)(C(=O)CO)C[C@@H]3O[C@H]1C[C@H](N)[C@H](O)[C@H](C)O1 [DOXORUBICIN] ... 6.10

###

- assay explanation: Binding affinity to chloride ion at 1.5 x 10^-5M using tetra(n-butyl)ammonium chloride measured after 5 mins by spectrophotometric titration method
# label = Condition met if Ka >= 4 ×10³ /M else Condition not met

1) O=[N+]([O-])c1cc(-c2nc3ccc(C(F)(F)F)cc3[nH]2)cc(-c2nc3ccc(C(F)(F)F)cc3[nH]2)c1 ... Condition met
2) COc1cc(-c2nc3ccc(C(F)(F)F)cc3[nH]2)cc(-c2nc3ccc(C(F)(F)F)cc3[nH]2)c1 ... Condition not met
3) O=[N+]([O-])c1cc(-c2nc3ccc([N+](=O)[O-])cc3[nH]2)cc(-c2nc3ccc([N+](=O)[O-])cc3[nH]2)c1 ... Condition met
4) COc1cc(-c2nc3ccc([N+](=O)[O-])cc3[nH]2)cc(-c2nc3ccc([N+](=O)[O-])cc3[nH]2)c1 ... Condition not met

###

- assay explanation: Ionophoric activity across pyranine dye encapsulated pH 7 egg yolk L-alpha-phosphatidylcholine-based liposomal membranes assessed as chloride ion transport by measuring induction of pH discharge after 20 mins in presence of NaCl loaded external vesicles by fluorescence method relative to m-Bimbe
reported property: fold change (FC)

1) COc1cc(-c2nc3ccc(C(F)(F)F)cc3[nH]2)cc(-c2nc3ccc(C(F)(F)F)cc3[nH]2)c1 ... 43
2) O=[N+]([O-])c1cc(-c2nc3ccc(C(F)(F)F)cc3[nH]2)cc(-c2nc3ccc(C(F)(F)F)cc3[nH]2)c1 ... 1720
3) COc1cc(-c2nc3ccc([N+](=O)[O-])cc3[nH]2)cc(-c2nc3ccc([N+](=O)[O-])cc3[nH]2)c1 ... 20
4) O=[N+]([O-])c1cc(-c2nc3ccc([N+](=O)[O-])cc3[nH]2)cc(-c2nc3ccc([N+](=O)[O-])cc3[nH]2)c1 ... 2370
5) FC(F)(F)c1ccc2nc(-c3cccc(-c4nc5ccc(C(F)(F)F)cc5[nH]4)c3)[nH]c2c1 ... 67
6) O=[N+]([O-])c1cc(-c2nc3ccccc3[nH]2)cc(-c2nc3ccccc3[nH]2)c1 ... 13
7) O=[N+]([O-])c1ccc2nc(-c3cccc(-c4nc5ccc([N+](=O)[O-])cc5[nH]4)c3)[nH]c2c1 ... 790
